- experimentalSystem: Amyloid-beta precursor protein (Homo sapiens) (UniProt P05067)
- Sequence (P05067 whole entry): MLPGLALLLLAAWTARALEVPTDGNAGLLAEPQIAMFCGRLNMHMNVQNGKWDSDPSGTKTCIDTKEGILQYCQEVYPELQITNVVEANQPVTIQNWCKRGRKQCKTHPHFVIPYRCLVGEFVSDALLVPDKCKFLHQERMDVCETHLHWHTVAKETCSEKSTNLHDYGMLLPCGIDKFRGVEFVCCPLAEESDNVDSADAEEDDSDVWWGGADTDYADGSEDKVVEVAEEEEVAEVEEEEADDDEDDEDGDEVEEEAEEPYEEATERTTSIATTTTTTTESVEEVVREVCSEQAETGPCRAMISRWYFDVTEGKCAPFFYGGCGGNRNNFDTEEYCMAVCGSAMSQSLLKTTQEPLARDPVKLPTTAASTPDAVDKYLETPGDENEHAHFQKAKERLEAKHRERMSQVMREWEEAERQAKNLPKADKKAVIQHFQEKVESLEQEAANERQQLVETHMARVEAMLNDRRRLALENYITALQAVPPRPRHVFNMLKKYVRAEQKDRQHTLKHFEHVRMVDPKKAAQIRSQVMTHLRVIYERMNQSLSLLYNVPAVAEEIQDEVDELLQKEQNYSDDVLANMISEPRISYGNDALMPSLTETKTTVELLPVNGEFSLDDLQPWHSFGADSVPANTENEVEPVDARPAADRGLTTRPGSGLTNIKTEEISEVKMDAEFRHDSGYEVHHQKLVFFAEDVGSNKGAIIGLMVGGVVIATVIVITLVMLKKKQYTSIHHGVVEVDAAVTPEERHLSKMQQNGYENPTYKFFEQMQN
- assayProtocol: Inhibition of Cu2+-induced amyloid beta (1 to 42) (unknown origin) aggregation at 25 uM by ThT fluorescence assay
reportedProperty: inhibition (%)
Report as a plain number; the unit % is understood.

*Q* Would you mind telling me what inhibition value was observed for CCCCC1OC(=O)c2cc(N3N=C(c4cc([N+](=O)[O-])ccc4O)CC3=O)ccc21 (stereo unspecified) ?
*A* 66.1

*Q* Would you mind telling me what inhibition value was observed for CCCCC1OC(=O)c2cc(N3N=C(c4cc(Cl)cc(Br)c4O)CC3=O)ccc21 (stereo unspecified) ?
*A* 85.1

*Q* Would you mind telling me what inhibition value was observed for CCCCC1OC(=O)c2cc(N3N=C(c4cc(N(C)C)ccc4O)CC3=O)ccc21 (stereo unspecified) ?
*A* 63.8

*Q* Would you mind telling me what inhibition value was observed for CCCCCCCC1OC(=O)c2cc(N3N=C(c4cc(OC)ccc4O)CC3=O)ccc21 (stereo unspecified) ?
*A* 63.1

*Q* Would you mind telling me what inhibition value was observed for CCCCC1OC(=O)c2cc(N3N=C(c4cc(Br)ccc4O)CC3=O)ccc21 (stereo unspecified) ?
*A* 64.1

*Q* Would you mind telling me what inhibition value was observed for CCCCC1OC(=O)c2cc(N3N=C(c4cc(Cl)cc(Cl)c4O)CC3=O)ccc21 (stereo unspecified) ?
*A* 70.3

*Q* Would you mind telling me what inhibition value was observed for CCCCCCC1OC(=O)c2cc(N3N=C(c4cc(Cl)ccc4O)CC3=O)ccc21 (stereo unspecified) ?
*A* 52.7

*Q* Would you mind telling me what inhibition value was observed for CCCCCCCC1OC(=O)c2cc(N3N=C(c4ccccc4O)CC3=O)ccc21 (stereo unspecified) ?
*A* 44.1

*Q* Would you mind telling me what inhibition value was observed for CCCCC1OC(=O)c2cc(N3N=C(c4ccccc4O)CC3=O)ccc21 (stereo unspecified) ?
*A* 75.3

*Q* Would you mind telling me what inhibition value was observed for CCCCCCC1OC(=O)c2cc(N3N=C(c4cc(F)ccc4O)CC3=O)ccc21 (stereo unspecified) ?
*A* 31.8

*Q* Would you mind telling me what inhibition value was observed for CCCCC1OC(=O)c2cc(N3N=C(c4ccc(Cl)cc4O)CC3=O)ccc21 (stereo unspecified) ?
*A* 66.2
